For each entry below, report its ELISA OD450 value.
# target: T1, mouse MET extracellular domain (ECD) (mouse, UniProt P16056 25-931)
# T1 construct: range 1-931; recombinant ECD; also called mMET; mouse MET ECD
# T1 sequence (P16056 25-931 limits assumed, form in doubt): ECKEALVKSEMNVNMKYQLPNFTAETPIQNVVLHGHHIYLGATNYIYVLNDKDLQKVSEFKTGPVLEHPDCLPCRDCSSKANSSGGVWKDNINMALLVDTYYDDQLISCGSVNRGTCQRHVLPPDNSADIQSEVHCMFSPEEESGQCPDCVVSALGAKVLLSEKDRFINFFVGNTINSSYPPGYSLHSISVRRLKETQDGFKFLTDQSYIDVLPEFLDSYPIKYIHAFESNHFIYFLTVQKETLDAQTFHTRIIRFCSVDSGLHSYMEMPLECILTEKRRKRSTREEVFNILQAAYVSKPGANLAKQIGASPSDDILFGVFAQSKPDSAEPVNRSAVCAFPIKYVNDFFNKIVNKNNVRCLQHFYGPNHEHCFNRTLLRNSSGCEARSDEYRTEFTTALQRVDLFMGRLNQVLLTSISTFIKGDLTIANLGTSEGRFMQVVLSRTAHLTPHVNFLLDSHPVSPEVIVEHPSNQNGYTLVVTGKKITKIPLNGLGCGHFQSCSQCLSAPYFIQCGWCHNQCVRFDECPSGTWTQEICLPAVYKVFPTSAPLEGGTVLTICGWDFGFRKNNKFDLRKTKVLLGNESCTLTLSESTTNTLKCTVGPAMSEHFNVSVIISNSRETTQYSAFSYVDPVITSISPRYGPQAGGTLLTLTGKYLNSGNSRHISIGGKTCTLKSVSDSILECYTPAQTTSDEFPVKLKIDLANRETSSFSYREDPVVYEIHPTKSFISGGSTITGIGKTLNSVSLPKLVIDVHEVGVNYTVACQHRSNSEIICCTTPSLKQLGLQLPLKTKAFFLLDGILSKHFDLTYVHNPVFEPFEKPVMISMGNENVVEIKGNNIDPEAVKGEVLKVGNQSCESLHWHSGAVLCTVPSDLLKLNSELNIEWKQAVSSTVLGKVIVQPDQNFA
# method-description: ELISA, periplasmic Fab on MET ECD
# Procedure: Fab-expressing phages from the libraries described above were produced according to standard phage display protocols. For selection, phages were first adsorbed to immobilized recombinant human MET ECD, washed, and then eluted using trypsin. […] The Fab off-rates (koff) were measured over a two minute period. […] TABLE 7 Fabs binding to both human MET (hMET) and mouse MET (mMET). […] Binding of Fabs to human and mouse MET ECD was determined by Surface Plasmon Resonance (SPR) and by ELISA. […]

Request: Find the measured ELISA OD450 of Fab 72F8 (Fab, V domains shown, llama Fab (VH-CH1, lambda VL-CL) with MYC flag, crude periplasmic extract) VH: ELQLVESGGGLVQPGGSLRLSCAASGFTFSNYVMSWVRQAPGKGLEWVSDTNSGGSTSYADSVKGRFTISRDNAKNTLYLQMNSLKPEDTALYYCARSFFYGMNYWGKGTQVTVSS VL: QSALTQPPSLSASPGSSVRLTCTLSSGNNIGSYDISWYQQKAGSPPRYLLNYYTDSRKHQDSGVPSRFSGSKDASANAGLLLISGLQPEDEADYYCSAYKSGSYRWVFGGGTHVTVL and report it.
Result: 3.08 AU

Request: Find the measured ELISA OD450 of Fab 71G2 (Fab, V domains shown, llama Fab (VH-CH1, lambda VL-CL) with MYC flag, crude periplasmic extract) VH: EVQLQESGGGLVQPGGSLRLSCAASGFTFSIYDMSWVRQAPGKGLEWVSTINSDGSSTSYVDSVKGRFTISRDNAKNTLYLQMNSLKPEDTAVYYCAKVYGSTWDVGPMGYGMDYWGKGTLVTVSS VL: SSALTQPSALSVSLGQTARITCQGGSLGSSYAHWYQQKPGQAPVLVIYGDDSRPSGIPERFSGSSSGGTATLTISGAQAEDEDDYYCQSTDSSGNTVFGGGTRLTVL and report it.
Result: 0.543 AU

Request: Find the measured ELISA OD450 of Fab 71C3 (Fab, V domains shown, llama Fab (VH-CH1, lambda VL-CL) with MYC flag, crude periplasmic extract) VH: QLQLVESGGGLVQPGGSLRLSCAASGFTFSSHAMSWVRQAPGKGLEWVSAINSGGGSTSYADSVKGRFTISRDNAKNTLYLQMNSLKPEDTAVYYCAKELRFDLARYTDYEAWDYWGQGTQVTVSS VL: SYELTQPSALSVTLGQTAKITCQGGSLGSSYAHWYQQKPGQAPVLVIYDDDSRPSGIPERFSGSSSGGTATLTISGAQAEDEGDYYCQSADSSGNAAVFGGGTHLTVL and report it.
Result: 1.64 AU

Request: Find the measured ELISA OD450 of Fab 76G7 (Fab, V domains shown, llama Fab (VH-CH1, lambda VL-CL) with MYC flag, crude periplasmic extract) VH: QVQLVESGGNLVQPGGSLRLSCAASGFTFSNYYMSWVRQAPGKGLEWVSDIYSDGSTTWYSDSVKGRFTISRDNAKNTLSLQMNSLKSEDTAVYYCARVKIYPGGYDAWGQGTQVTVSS VL: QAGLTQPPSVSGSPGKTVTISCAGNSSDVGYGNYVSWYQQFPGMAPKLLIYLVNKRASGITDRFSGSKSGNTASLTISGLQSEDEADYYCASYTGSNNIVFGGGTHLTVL and report it.
Result: 3.08 AU

Request: Find the measured ELISA OD450 of Fab 71A3 (Fab, V domains shown, llama Fab (VH-CH1, lambda VL-CL) with MYC flag, crude periplasmic extract) VH: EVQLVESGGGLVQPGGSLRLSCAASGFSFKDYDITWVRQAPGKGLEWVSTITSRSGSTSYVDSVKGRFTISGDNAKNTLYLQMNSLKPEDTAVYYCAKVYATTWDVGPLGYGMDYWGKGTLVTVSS VL: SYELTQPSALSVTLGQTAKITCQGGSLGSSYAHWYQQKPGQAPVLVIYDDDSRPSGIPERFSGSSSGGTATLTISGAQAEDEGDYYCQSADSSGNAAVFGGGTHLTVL and report it.
Result: 0.524 AU

Request: Find the measured ELISA OD450 of Fab 76H10 (Fab, V domains shown, llama Fab (VH-CH1, lambda VL-CL) with MYC flag, crude periplasmic extract) VH: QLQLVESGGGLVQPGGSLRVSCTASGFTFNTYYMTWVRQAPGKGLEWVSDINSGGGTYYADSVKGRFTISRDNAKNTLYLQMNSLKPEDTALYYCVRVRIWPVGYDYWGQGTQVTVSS VL: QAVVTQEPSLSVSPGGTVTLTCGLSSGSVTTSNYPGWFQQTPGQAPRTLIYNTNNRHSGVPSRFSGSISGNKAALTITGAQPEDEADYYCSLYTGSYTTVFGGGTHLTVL and report it.
Result: 3.7 AU

Request: Find the measured ELISA OD450 of Fab 74C8 (Fab, V domains shown, llama Fab (VH-CH1, lambda VL-CL) with MYC flag, crude periplasmic extract) VH: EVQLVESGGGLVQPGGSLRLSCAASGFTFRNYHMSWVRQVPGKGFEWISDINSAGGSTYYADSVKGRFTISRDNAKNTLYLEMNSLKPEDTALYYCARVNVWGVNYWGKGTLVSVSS VL: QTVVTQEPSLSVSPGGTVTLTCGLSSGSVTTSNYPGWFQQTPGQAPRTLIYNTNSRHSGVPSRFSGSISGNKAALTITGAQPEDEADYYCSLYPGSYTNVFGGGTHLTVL and report it.
Result: 2.92 AU

Request: Find the measured ELISA OD450 of Fab 71G3 (Fab, V domains shown, llama Fab (VH-CH1, lambda VL-CL) with MYC flag, crude periplasmic extract) VH: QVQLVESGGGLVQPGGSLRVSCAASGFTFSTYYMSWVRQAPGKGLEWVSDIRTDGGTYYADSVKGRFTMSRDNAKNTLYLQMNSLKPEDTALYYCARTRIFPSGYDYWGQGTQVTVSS VL: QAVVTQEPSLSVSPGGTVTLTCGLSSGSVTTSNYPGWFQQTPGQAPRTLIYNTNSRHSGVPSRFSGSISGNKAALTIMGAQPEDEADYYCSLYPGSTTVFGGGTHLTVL and report it.
Result: 3.44 AU
